Tested on: OVCAR-4 ovarian
assay: NCI tumour cell line growth inhibition, 48 h
endpointName: TGI

Look up TGI of `O=C1c2ccccc2-c2cccc3ccc(Cc4ccc5ccccc5c4)c1c23` and report it.
> 100 µM

Consider the molecule `O=c1c2c(nc3n1CCS3)[nH]c1ccccc12` and give its recorded TGI.
> 100 µM

For COc1ccc(NC(=O)C(=O)C(C(=O)c2ccccc2)C2OC(=O)c3ccccc32)c([N+](=O)[O-])c1 (stereo unspecified) , write its TGI.
> 100 µM

Please look at this molecule and report its TGI: `COc1ccc(CN(C)c2ccc(CO)c(Cl)c2)cc1`
> 45.9 µM

Identify measured TGI corresponding to `Cc1ccc2c(c1)C(=O)/C(=N/Nc1ccc(Cl)cc1)CCO2`
> 100 µM

Look up TGI of O=C(c1ccccc1)c1ccc2nc3n(c2c1)C(c1c(F)cccc1F)SC3 (stereo unspecified) and report it.
> 73.6 µM

Assign TGI to the following record: `CCNC(=O)CCN(C(=O)O)S(=O)(=O)c1ccc(NC(=O)c2ccccc2)cc1`
> 100 µM

Report TGI for `Cc1c(C)c2c(c(N)c1C#N)C(=O)N(CCc1ccccc1)C2=O`
> 100 µM

Dear colleague, please send me the reported TGI for `O=c1c(Oc2ccc(F)cc2F)cc2cnc(NC3CCOCC3)nc2n1C1CCS(=O)(=O)CC1` when you can.
> 25 µM

Please supply the value of reported TGI for the item C=CC1(C(=O)O)CCC(C(C)(C)C)CC1 (stereo unspecified)
> 100 µM

Give TGI for `COc1cc(Cl)c2c3c(c(C(C)=O)oc13)CCC2`
> 100 µM

* * *

System: A549 NSCLC
assay: NCI tumour cell line growth inhibition, 48 h
endpointName: GI50

// fetch GI50; item: CC(O)c1cccc(NCc2c3ccccc3c(=O)n3c2oc2ccccc23)c1 (centres undefined) ; system: A549 NSCLC
2.33 µM

State measured GI50 of the compound `COC(=O)c1cc2c(cc1Cl)SC(N(N(C)C)S(=O)(=O)c1ccc(Br)s1)=NS2(=O)=O` with A549 NSCLC.
32 µM

Give A549 NSCLC GI50 for the following compound: `COc1cc(OC)c(/C=C/S(=O)(=O)Cc2cnc(OC)c(N)c2)c(OC)c1`
< 0.0263 µM

Under A549 NSCLC: report GI50 of `COc1ccc(CN(C)c2ccc(CO)c(Cl)c2)cc1` .
5.75 µM

* * *

Hi there, I'd appreciate the recorded TGI for every entry that follows.
Tested on: SNB-75 CNS
assay: NCI tumour cell line growth inhibition, 48 h

Respond only with TGI recorded for `CC(C)(C#N)c1cc(Cn2cncn2)cc(C(C)(C)C#N)c1`
> 10000 µM

Provide only the value of recorded TGI for CC(=O)N1C(=O)CC2(N=C(C)CC2=O)c2ccccc21 (stereo not drawn)
> 10 µM

Using known records, supply TGI for `COC(=O)c1c(O)ccc2c1c1c(n2Cc2ccccc2)C(=O)c2ccccc2C1=O`
29.1 µM

Assign TGI to the following record: CC(=O)Nc1ccc(C(=O)NN2C(=O)C(Cl)C2c2ccc(Cl)cc2)cc1 (stereo not drawn)
30.9 µM

Output TGI of `CCOC(=O)NC(=O)c1cn(CC(=O)NCC(=O)NCC(=O)NCCCN2CCN(CCCNC(=O)CNC(=O)CNC(=O)Cn3cc(C(=O)NC(=O)OCC)c(=O)[nH]c3=O)CC2)c(=O)[nH]c1=O`
> 100 µM

Please report TGI for the following compound: `CC1(C)CN=C(c2ccc3c(c2)Cc2cc(C4=NCC(C)(C)N4)ccc2-3)N1`
> 100 µM

Report measured TGI; entry is COC(=O)CCc1cc(OC)c2c(c1)C(C(=O)OC)C(c1ccc(OC)c(OC)c1)O2 (stereo not drawn)
50.6 µM

Let me know recorded TGI for `CN(C)c1ccc(/C=N\NC(=O)c2ccccc2Nc2ccccc2C(=O)N/N=C/c2ccc(N(C)C)cc2)cc1` , thanks.
> 100 µM

Entry CCC(C)C(C(=O)N/N=C1/SCC(=O)N1c1ccccc1)C(=O)N/N=C1/SCC(=O)N1c1ccccc1 (stereo not drawn) needs its TGI filled in; supply it.
> 100 µM

Report measured TGI; entry is Cc1oc2c(c1C)S(=O)(=O)C(C#N)C(c1ccccc1)N2 (stereo not drawn)
> 100 µM

Read off the recorded TGI for `CCNC(=O)CCN(C(=O)O)S(=O)(=O)c1ccc(NC(=O)c2ccccc2)cc1`
> 100 µM

Respond only with TGI recorded for C=C1C(=O)OC2/C=C(\CO)C3OC3C3OC3(C)CC(OC(=O)/C(=C/C)CO)C12 (stereo not drawn)
> 100 µM

Give TGI for `Cc1oc2c(c1C)S(=O)(=O)C(C#N)=C(c1ccccc1)N2`
> 100 µM

Specify reported TGI for the compound shown: O=C1CC(CC(O)[C@@H]2CCCC[C@@H]2O)CC(=O)N1c1ccccc1 (stereo partly drawn)
> 100 µM

Return value of TGI for input CC(=O)O[C@H]1CC[C@H]2[C@@H]3CCC4C(C)=NNC(=O)C4[C@H]3CC[C@]12C (stereo partly drawn) , no commentary.
33.7 µM

# return recorded TGI for entry `COc1ccc(OC)c2sc(N3C(=O)/C(=C/c4ccc(Cl)cc4)N=C3c3ccccc3)nc12`
> 100 µM

Given `O=c1c2c(nc3n1CCS3)[nH]c1ccccc12` , respond with its TGI.
> 100 µM

Answer with the recorded TGI of `Cc1cc([C@H](C#N)c2nc3ccccc3[nH]2)nc(Cl)n1` only.
93.4 µM

Consider the compound `N#CC(C#N)N=Cc1ccncc1` and give its recorded TGI.
> 100 µM

Look up and report measured TGI for this entry: O=C(c1ccccc1)c1ccc2nc3n(c2c1)C(c1c(F)cccc1F)SC3 (stereo not drawn)
29.4 µM

State its TGI for this compound: `O=C1c2ccccc2-c2cccc3ccc(Cc4ccc5ccccc5c4)c1c23`
> 100 µM

Please give measured TGI of the following entry: `C[C@]12C[C@H](c3ccccc3)Nc3ccccc3N1C(c1ccccc1)=NO2`
> 100 µM

Give a short answer stating reported TGI for `COc1ccc(/C=N\NC(=O)CN2CCN(c3cc4c(cc3F)c(=O)c(C(=O)N/N=C/c3ccc(OC)c(OC)c3)cn4C3CC3)CC2)cc1OC` .
3.49 µM

Given CC1=NN(C(=O)CC(=O)Nc2ccc(C)cc2)C(=O)C1N=Nc1ccc(C(=O)O)cc1 (stereo not drawn) , respond with its TGI.
> 100 µM

Tell me TGI reported for `COc1ccc([N+](=O)[O-])c2c(NCCCN(C)C)c3ccccc3nc12`
0.802 µM

In one line, give reported TGI of the entry `O=c1c(Oc2ccc(F)cc2F)cc2cnc(NC3CCOCC3)nc2n1C1CCS(=O)(=O)CC1` .
> 25 µM

For `Nc1c(C(=O)c2ccc(Cl)cc2)sc(Nc2ccccc2)c1-c1nc2ccccc2s1` , write its TGI.
9.5 µM

Supply recorded TGI for OC1(CCc2ccccc2)COC(C(F)(F)F)(C(F)(F)F)C1 (stereo not drawn) here.
> 100 µM

* * *

Test system: HS 578T breast
assay: NCI tumour cell line growth inhibition, 48 h; in the data active means GI50 below about 0.43 µM; inactive means the rest
Write down the outcome that applies. Available outcomes: t (active), f (inactive)

Assay result, entry `O=c1c2c(nc3n1CCS3)[nH]c1ccccc12` — outcome?
f

I would be grateful if you could indicate the recorded call for `CCOC(=O)C(Cc1c[nH]c2ccc(N)cc12)(NC(C)=O)C(=O)OCC` .
f

Dear all, I need the recorded test outcome for `Cc1cc(C)c([O-])c(CN(C)CCN(C)Cc2cc(C)cc(C)c2[O-])c1.O=C([O-])c1cccc(C(=O)[O-])n1.[Ti+4]` , thank you.
f

What did the test return for `COc1cc(OC)c(/C=C/S(=O)(=O)Cc2cnc(OC)c(N)c2)c(OC)c1` ?
t

Name the outcome recorded for `NOCC(=O)O` in the assay.
f

Tell me the assay call for `O=C1Nc2ccc(C(=O)c3ccco3)cc2/C1=C/c1cc(Cl)c(O)c(Cl)c1` please.
f

What classification did `CC(=O)c1c(C)[nH]c(-c2nc3ccc(N4CCN(C)CC4)cc3[nH]2)c1-c1ccc(OCC2CCOCC2)cc1` end up with in this test?
t

Status in this test for `Cc1cc(I)cc(CN(C)CCCN2CCSCC2)c1O` ?
f

What was the test verdict on `O=C1c2ccccc2-c2c1c1ccccc1c(=O)n2CCCNCCCn1ccnc1` ?
f

What classification did `CC(C)c1ccc(C(=O)Nc2nc3ccc(O)cc3s2)cc1` end up with in this test?
f

// return assay outcome for `COC(=O)c1cc2c(cc1Cl)SC(N(N(C)C)S(=O)(=O)c1ccc(Br)s1)=NS2(=O)=O`
f

* * *

System: SK-OV-3 ovarian
assay: NCI tumour cell line growth inhibition, 48 h
endpointName: TGI (µM)
Numbers only here, please. The scale is µM.

Determine reported TGI for `O=c1[nH]c(C23CC4CC(CC(C4)C2)C3)cc2c1c(=O)oc1ccccc12` ; test system: SK-OV-3 ovarian.
11

State the measured TGI (SK-OV-3 ovarian) of `COc1cc(C(=O)/C(C)=C/c2c[nH]c3ccccc23)cc(OC)c1OC`
76.8

For SK-OV-3 ovarian, give the measured TGI of the entry CCN(CC)C1Oc2cc3c(cc2C(c2ccc(OC)cc2)C1C)OCO3 (stereo unspecified)
97.4
